Assay: NCOA3 reporter inhibition potency – cell-based, luminescence, counter-screen for SRC1 inhibitor project, dose response (AID 602234);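 also: HEK293 cells co-transfected with pGL4.31 reporter and pBIND-SRC3 fusion vector; potency for inhibition of reporter luminescence with Gossypol as full inhibition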
Conditions: transfected HEK293 cells, counter-screen luciferase reporter
Active and inactive are the calls of the source. No rule for the calls is given here.
Outcome codes: Y for active, N for inactive

structure string | category label
COc1ccc(-n2cnc3c(sc4nccc(N(C)C)c43)c2=O)cc1 | N
NC(=S)NN=Cc1nccc2c(N)cccc12 | Y
O=C(CCn1cnc(-c2ccccc2)c1-c1ccccc1)N/N=C/c1ccccc1O | N
NC(=S)NN=Cc1ccc(OC(=O)COc2cc(Cl)c(Cl)cc2Cl)cn1 | Y
COc1ccc(Nc2ncnc3ccc(Br)cc23)c(OC)c1 | Y
CNc1cccnc1C=NNC(N)=S | Y
COc1ccc2c(c1)-c1c(ssc1=S)C(C)(C)N2C(=O)CSC1=NCCS1 | N
COc1ccc2c(=O)cc(-c3ccncc3)oc2c1OC | Y
COc1ccc(Oc2nc3c(c(=O)n(C)c(=O)n3C)n2C)cc1 | Y
CCCCCOc1ccc(/C=C/c2c([N+](=O)[O-])c(=O)n(C)c(=O)n2C)cc1 | Y
CCCS(=O)(=O)c1c(S(=O)(=O)CCC)c2c(C)cccn2c1C(=O)N/N=C/c1cc(O)cc(O)c1 | N

* * *

Experiment: NCOA3 reporter inhibition potency – cell-based, luminescence, counter-screen for SRC1 inhibitor project, dose response (AID 602234)
Details: transfected HEK293 cells, counter-screen luciferase reporter
The source made the active and inactive calls. How the calls were made is not given here.
# IC50 listing for each entry below

molecule | IC50
CS(=O)(=O)Nc1cccc(NC(=O)C2Cc3c(-c4ccco4)ccnc3O2)c1 (stereo unspecified) | > 12 µM (inactive)
COc1cc2c(cc1OC)C(C)N(C(=O)c1cccc([N+](=O)[O-])c1)CC2 (stereo unspecified) | 7.27 µM
Fc1ccc(CSc2nnc(-c3ccncc3)o2)cc1 | 2.69 µM
COc1cccc(CNc2ncnc3ccc(-c4c(C)noc4C)cc23)c1 | 9.92 µM
Cc1nn(CC(=O)N2CCN(c3cccc(C(F)(F)F)c3)CC2)c(=O)c2cccn12 | 5.11 µM
O=C(N/N=C/c1ccc(O)cc1O)/C(=C/c1ccccc1)CCO | 5.37 µM
Cc1sc2ncnc(N3CCC(C(=O)N(C)CC(=O)Nc4cccc(F)c4)CC3)c2c1C | 8.1 µM
NNC(=O)c1cc2ccccc2cc1O | 1.57 µM
COC(=O)c1cccc2c1-c1ccccc1/C2=N/O | 2.57 µM
CCN(C(=O)c1cc(S(=O)(=O)N2CCCCC2)c[nH]1)c1ccc(OC)cc1 | 8 µM
O=C(CCCc1nc(-c2ccccc2Cl)no1)NC1CCCC1 | 3.59 µM

* * *

Experiment: NCOA3 reporter inhibition potency – cell-based, luminescence, counter-screen for SRC1 inhibitor project, dose response (AID 602234);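 also: HEK293 cells co-transfected with pGL4.31 reporter and pBIND-SRC3 fusion vector; potency for inhibition of reporter luminescence with Gossypol as full inhibition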
Details: transfected HEK293 cells, counter-screen luciferase reporter
Activity calls are given as the source filed them. The rule behind the calls is not given here.
Outcome codes: active, inactive

compound | category label
Cc1ccc2occ(/C=N/NC(=O)[C@@H](N)Cc3ccccc3)c(=O)c2c1 | active
O=C(N/N=C/c1cc([N+](=O)[O-])ccc1O)c1cccc(N2CCCC2=O)c1 | inactive
COc1ccc(-c2ncncc2-c2ccccc2)c(O)c1 | active
Nc1ccc(Oc2ccccc2-c2ccccc2)cc1 | active
COc1cccc(C2=CC(=O)CC(C)(C)C2)c1 | active
Cc1nc2c(-c3ccc(F)cc3)cnn2c(N)c1-c1ccccc1 | inactive
CC[C@@]1(O)C(=O)OCc2c1cc1n(c2=O)Cc2cc3c(NC(=O)CN)cccc3nc2-1 | active
O=C(CCC1CCCC1)Nc1ccc(C(=O)NCc2cccnc2)cc1 | inactive
O=C(CCl)N1N=C(c2ccco2)CC1c1ccco1 (configuration not stated) | active
CC(NC(=O)COC(=O)c1cccs1)c1ccccc1 (configuration not stated) | inactive
N#Cc1c(-c2ccccc2)c(C#N)c2nc3ccccc3n2c1N | inactive
CCCCC(=O)Nc1cccn2ncnc12 | inactive

* * *

Assay: NCOA3 reporter inhibition potency – cell-based, luminescence, counter-screen for SRC1 inhibitor project, dose response (AID 602234);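 also: HEK293 cells co-transfected with pGL4.31 reporter and pBIND-SRC3 fusion vector; potency for inhibition of reporter luminescence with Gossypol as full inhibition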
Conditions: transfected HEK293 cells, counter-screen luciferase reporter
Active and inactive are the calls of the source. The rule behind the calls is not given here.
Outcome codes: active, inactive

compound | category label
Cc1ccccc1C(=O)/C(C#N)=N/Nc1c(C)n(C)n(-c2ccccc2)c1=O | active
C=C1C(=O)[C@@]23C[C@H]4[C@@H]5[C@@]6(C)CCC[C@@]57[C@@H]2[C@@H](O)[C@@H]1C[C@H]3[C@H]7N4C6 | active
COC(=O)c1sc2cnccc2c1N | active
CCN(C(=O)c1cccc(S(=O)(=O)N(C)C)c1)C12CC3CC(CC(C3)C1)C2 | inactive
COc1ccc(C(O)(C(C)C)C(CN2CCOCC2)c2ccc(Cl)cc2)cc1 (centres undefined) | inactive
O=C(O)CN1C(=O)/C(=C\c2ccccc2OCc2ccc(Cl)cc2Cl)SC1=S | inactive
Cc1ccc(S(=O)(=O)Nc2c(NC3CCCCC3)c3ccccc3oc2=O)c(C)c1 | inactive
OCCN(CCO)CC(O)COc1ccc(C23CC4CC(CC(C4)C2)C3)cc1 (centres undefined) | inactive
COc1ccccc1N(C(=O)CCl)c1cn(C(C)=O)c2ccccc12 | active
CN(CC(=O)Nc1ccc(Cl)c(C(F)(F)F)c1)C(=O)C1CC(=O)N(c2ccc3c(c2)OCCO3)C1 (centres undefined) | active
Cc1cccc(C)c1-c1ccc(CN2C(CC(C)C)C(=O)N(Cc3cn(CC4CCCCC4)nn3)CCS2(=O)=O)cc1 (centres undefined) | active
CC1CCCCN1c1ncnc2ccccc12 (centres undefined) | active
Cc1ccc(O)c(Nc2ncnc3ccc([N+](=O)[O-])cc23)c1 | active
COc1ccc2c(C#N)c3ccccn3c2c1 | inactive

* * *

Assay: NCOA3 reporter inhibition potency – cell-based, luminescence, counter-screen for SRC1 inhibitor project, dose response (AID 602234);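 also: HEK293 cells co-transfected with pGL4.31 reporter and pBIND-SRC3 fusion vector; potency for inhibition of reporter luminescence with Gossypol as full inhibition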
Conditions: transfected HEK293 cells, counter-screen luciferase reporter
The source made the active and inactive calls. No rule for the calls is given here.
Outcome codes: active, inactive

compound | category label
C=CCc1ccccc1OCC(=O)N/N=C/c1ccc(OC(C)=O)cc1OC(C)=O | inactive
COc1ccc(OC)c(/C=C2\NC(=O)NC2=O)c1 | active
CCN(Cc1ccncc1)C(=O)CC1C(=O)NCCN1Cc1ccc(F)c(F)c1 (stereo unspecified) | active
COc1ccc(Nc2ncnc3ccc(C)cc23)cc1 | active
Cc1cc(=O)[nH]c(Nc2cccc(Br)c2)n1 | active
CN(C)C(=O)c1ccc(-c2n[nH]c(=O)c3ccccc23)cc1 | active
COc1ccc2ncn(-c3ccccc3)c2c1 | active
O=C(CCl)N1N=C(c2ccco2)CC1c1cccs1 (stereo unspecified) | active
O=C(c1ccncc1)N(Cc1cc2ccccc2[nH]c1=O)C1CCCCC1 | active
CCOC(=O)c1c(NC(=O)C(C)N2CCN(C(=O)c3ccco3)CC2)sc2c1CCCC2 (stereo unspecified) | active
NC(=O)c1cc(Sc2ccccc2)nc2ccccc12 | inactive
Cc1ccc2occ(/C=N/NC(=O)c3ccncc3)c(=O)c2c1 | inactive
CN(C)C=Nc1c(C(=O)c2ccccc2)sc2nccc(N(C)C)c12 | active
COc1ccc(-c2cc(=O)oc3c(C)c(O)c(CN(C)C)cc23)cc1 | inactive
Cc1ccc(O)c(C(=O)c2cnn(C(=O)COc3ccc(Cl)cc3)c2)c1 | active
COc1ccc(Cc2nnc(SCc3ccc([N+](=O)[O-])cc3)o2)cc1 | active
CC(C)n1c(-c2cccnc2)nc2cnccc21 | active
CCOc1ccc(/C=C2\SC(=S)N(CCC(=O)O)C2=O)cc1 | active
COc1ccc(/C=C2\CC/C(=C\c3ccc(OC)c(OC)c3)C2=O)cc1OC | active
CCOc1ccc(/C=C2\SC(=S)N(CCCC(=O)NCCCN3CCOCC3)C2=O)cc1 | active
COc1cccc(NC(=O)CN(C)CC(=O)Nc2ccc(Cl)cc2[N+](=O)[O-])c1 | inactive
c1cc2[nH]snc2c2nc(C3CC3)nc12 | active
CCN1CCN(C(=S)c2ccc(-c3ccccc3)cc2)CC1 | active
O=C(CSc1nc(-c2cccs2)cc(C(F)(F)F)n1)Nc1cc(OCC(F)(F)C(F)F)cc([N+](=O)[O-])c1 | inactive
CCCS(=O)(=O)Nc1ccc(Nc2c3ccccc3nc3ccccc23)c(OC)c1 | active
c1ccc(-c2csc3ncnc(NCCN4CCOCC4)c23)cc1 | active
Cc1ccc(N=c2c([N+](=O)[O-])nn(-c3ccc4c(c3)OCCO4)n2O)cc1F | active
CCn1ccnc1CN(C)Cc1cn[nH]c1-c1ccc(F)cc1F | active
O=C(N/N=C/c1ccccc1O)/C(=C/c1ccccc1)CCO | active
OCCN1CCN(C(=S)c2ccc(-c3ccccc3)cc2)CC1 | active
c1cnc2ccc(-n3ccnc3)cc2c1 | active
NC(=S)NN=Cc1nccc2ccccc12 | active
O=C(COC(=O)c1ccc[nH]c1=O)Nc1ccc(N2CCCCC2)cc1 | active
O=C(NC(=S)Nc1ccc(N2CCN(C(=O)c3ccccc3)CC2)cc1)c1cccs1 | active
CCc1ccc(/C=C2\SC(=S)N(CCCC(=O)NCCCN3CCOCC3)C2=O)cc1 | active
O=[N+]([O-])c1ccc2c(c1)-c1ccccc1C2=NO | active
CCN(CC)CCNC(=O)c1ccc(NC(=O)C2CCN(c3ncnc4sc(C)c(C)c34)CC2)cc1 | active
CC(=O)NC(c1cc(Cl)c2cccnc2c1O)C(C)C (stereo unspecified) | active
COc1ccccc1/C=C\C(=O)NCC(=O)N/N=C/c1cccc(OC)c1O | inactive
CNc1ncnc(Sc2nc(N)nc3nc[nH]c23)c1[N+](=O)[O-] | active
CC(C)n1c(SCC(=O)Nc2nc3c(s2)CCCC3)nc2c1c(=O)n(C)c(=O)n2C | active
O=C(CCCOc1ccc(Cl)cc1Cl)N/N=C/c1ccccc1O | active
O=C(Nc1cccc(Cl)c1)Nc1nnc(-c2ccncc2)s1 | active
O=[N+]([O-])c1ccc(N(CCO)CCO)c2c1no[n+]2[O-] | active
N#Cc1cc2ccncc2c2ccccc12 | active
CCc1c(C)nc2c(C)cccc2c1SCCC#N | inactive
